# System: HCT-116
# assayDetails: Cytotoxicity against human HCT116 cells after 24 hrs in presence of GSH-OEt by MTT assay
# Assay type: functional, cell-based
# experimentalParameters: HCT-116, 24 h
pIC50: −log10 of the molar value.
# pIC50 values compiled below

Previously resolved entries follow.
>>> valuemeasured("CC1(C)OC2=C(C(=O)C(=O)c3ccccc32)C1n1cc(CNC2=[N+]3C(=C(c4ccccc4)c4ccc(Cl)n4[B-]3(F)F)C=C2)nn1 (centres undefined)")
4.85
>>> valuemeasured("CC1(C)CC(n2cc(CNc3ccc4n3[B-](F)(F)[N+]3=C(Cl)C=CC3=C4c3ccccc3)nn2)C2=C(O1)C(=O)c1ccccc1C2=O (centres undefined)")
"< 4.40"
>>> valuemeasured("O=C1C2=C(OC(Cn3cc(CNc4ccc5n4[B-](F)(F)[N+]4=C(Cl)C=CC4=C5c4ccccc4)nn3)C2)C(=O)c2ccccc21 (centres undefined)")
"< 4.40"

Incoming: pIC50 lookup needed for CC1(C)OC2=C(C(=O)c3ccccc3C2=O)C1n1cc(CNC2=[N+]3C(=C(c4ccccc4)c4ccc(Cl)n4[B-]3(F)F)C=C2)nn1 (centres undefined) , thanks.
Outgoing: < 4.40
